# measurement_target: Gal3S(b1-4)[Fuc(a1-3)]Glc6S
# assay_details: glycan array binding signal (z-score within array); higher = stronger binding
# condition_description: glycan notation: IUPAC condensed, linker removed
This excerpt belongs to a sample that is enriched for the strongest signals.
measured_parameter: glycan array binding signal (z-score)
Enter a number only.

Completed entries (count: 2):
* Sebin1 (Coprinopsis cinerea), A8PEE3 (protein) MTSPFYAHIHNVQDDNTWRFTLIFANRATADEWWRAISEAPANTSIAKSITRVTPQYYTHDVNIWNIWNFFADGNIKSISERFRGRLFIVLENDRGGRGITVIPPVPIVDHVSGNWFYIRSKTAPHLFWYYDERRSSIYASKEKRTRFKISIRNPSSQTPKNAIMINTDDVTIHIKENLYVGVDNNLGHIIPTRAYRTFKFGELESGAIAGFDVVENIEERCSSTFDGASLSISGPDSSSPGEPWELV | 0.696
* Clec2 (Mus musculus), Q9JL99 (protein) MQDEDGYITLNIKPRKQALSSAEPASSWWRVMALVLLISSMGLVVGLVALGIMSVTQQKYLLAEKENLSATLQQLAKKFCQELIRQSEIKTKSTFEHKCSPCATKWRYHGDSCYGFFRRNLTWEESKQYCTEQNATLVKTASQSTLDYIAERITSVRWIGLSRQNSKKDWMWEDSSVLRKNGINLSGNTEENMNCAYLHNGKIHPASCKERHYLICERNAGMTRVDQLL | 1.03

Next item in the queue.
Query block: For the binder XL-35 (Xenopus laevis) (protein) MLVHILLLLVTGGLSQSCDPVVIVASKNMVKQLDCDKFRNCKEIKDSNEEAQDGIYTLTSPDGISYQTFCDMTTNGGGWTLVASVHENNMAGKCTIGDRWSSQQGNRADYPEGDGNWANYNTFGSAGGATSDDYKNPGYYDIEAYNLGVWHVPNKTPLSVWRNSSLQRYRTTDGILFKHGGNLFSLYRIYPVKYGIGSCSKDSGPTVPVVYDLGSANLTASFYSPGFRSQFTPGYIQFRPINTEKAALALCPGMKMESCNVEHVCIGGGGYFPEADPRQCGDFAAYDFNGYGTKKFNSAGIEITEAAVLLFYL , give its measured glycan array binding signal (z-score) value.
Result block: 0.818
